# Tested on: MZ7MEL
# measurement-protocol: apoptotic fraction of cells (caspase-3 NucView488 positive); higher = more apoptosis
# test-parameters: 24 h; 0.316 µM
Attribute: apoptotic fraction of cells
Could you keep your reply to the number by itself?

Cn1cnc2c(F)c(Nc3ccc(Br)cc3Cl)c(C(=O)NOCCO)cc21 0.021
CCCS(=O)(=O)Nc1ccc(F)c(C(=O)c2c[nH]c3ncc(Cl)cc23)c1F 0.00918
CCCS(=O)(=O)Nc1ccc(F)c(C(=O)c2c[nH]c3ncc(-c4ccc(Cl)cc4)cc23)c1F 0.0118

Request: Query (compound): CN(C)CCOc1ccc(-c2nc(-c3ccncc3)c(-c3ccc4c(c3)CC/C4=N\O)[nH]2)cc1 ; field requested: apoptotic fraction of cells
Result: 0.0151

Request: Return reported apoptotic fraction of cells; argument: Cc1ccc(NC(=O)c2cccc(C(C)(C)C#N)c2)cc1Nc1ccc2ncn(C)c(=O)c2c1
Result: 0.0204

###

# Tested on: LOXIMVI
# measurement-protocol: relative viability (cell count relative to DMSO-treated control) (fraction of DMSO control); higher = more viable cells / less drug effect
# test-parameters: 24 h; 0.316 µM
endpoint: relative viability
Number only, no unit.

compound	relative viability
CCCS(=O)(=O)Nc1ccc(F)c(C(=O)c2c[nH]c3ncc(-c4ccc(Cl)cc4)cc23)c1F [Vemurafenib]	0.953

Request: # relative viability lookup, item Cn1cnc2c(F)c(Nc3ccc(Br)cc3Cl)c(C(=O)NOCCO)cc21 [Selumetinib]
Result: 0.98

Request: Given the compound CN(C)CCOc1ccc(-c2nc(-c3ccncc3)c(-c3ccc4c(c3)CC/C4=N\O)[nH]2)cc1 , what is its reported relative viability?
Result: 1.02

Request: Would you mind telling me what relative viability value was observed for CCCS(=O)(=O)Nc1ccc(F)c(C(=O)c2c[nH]c3ncc(Cl)cc23)c1F [PLX4720] ?
Result: 1.05

Request: Which relative viability reading was recorded for the compound Cc1ccc(NC(=O)c2cccc(C(C)(C)C#N)c2)cc1Nc1ccc2ncn(C)c(=O)c2c1 [AZ628] ?
Result: 0.86

###

# System: COLO858
# measurement-protocol: relative viability (cell count relative to DMSO-treated control) (fraction of DMSO control); higher = more viable cells / less drug effect
# test-parameters: 72 h; 1 µM
endpoint: relative viability

compound	relative viability
Cc1ccc(NC(=O)c2cccc(C(C)(C)C#N)c2)cc1Nc1ccc2ncn(C)c(=O)c2c1 [AZ628]	0.307

Request: Any idea what relative viability was measured for CCCS(=O)(=O)Nc1ccc(F)c(C(=O)c2c[nH]c3ncc(Cl)cc23)c1F [PLX4720] ?
Result: 0.417

Request: # relative viability lookup, item CN(C)CCOc1ccc(-c2nc(-c3ccncc3)c(-c3ccc4c(c3)CC/C4=N\O)[nH]2)cc1
Result: 0.381

Request: Which measured relative viability value corresponds to Cn1cnc2c(F)c(Nc3ccc(Br)cc3Cl)c(C(=O)NOCCO)cc21 [Selumetinib] ?
Result: 0.342

Request: Reported relative viability for CCCS(=O)(=O)Nc1ccc(F)c(C(=O)c2c[nH]c3ncc(-c4ccc(Cl)cc4)cc23)c1F [Vemurafenib] : what is it?
Result: 0.393

###

# System: MMACSF
# measurement-protocol: apoptotic fraction of cells (caspase-3 NucView488 positive); higher = more apoptosis
# test-parameters: 24 h; 0.01 µM
apoptotic fraction of cells vs 0.04: at or above is T, below is F.

Request: For this compound, is measured apoptotic fraction of cells 0.04 or higher? CN(C)CCOc1ccc(-c2nc(-c3ccncc3)c(-c3ccc4c(c3)CC/C4=N\O)[nH]2)cc1
Result: T

Request: Assess whether reported apoptotic fraction of cells for Cc1ccc(NC(=O)c2cccc(C(C)(C)C#N)c2)cc1Nc1ccc2ncn(C)c(=O)c2c1 sits at 0.04 or higher.
Result: T

Request: Given the entry CCCS(=O)(=O)Nc1ccc(F)c(C(=O)c2c[nH]c3ncc(-c4ccc(Cl)cc4)cc23)c1F , answer whether its apoptotic fraction of cells meets or surpasses 0.04.
Result: F

Request: Could you tell me if the measured apoptotic fraction of cells of Cn1cnc2c(F)c(Nc3ccc(Br)cc3Cl)c(C(=O)NOCCO)cc21 reaches 0.04 or more?
Result: T

Request: In plain terms: is recorded apoptotic fraction of cells at least 0.04 for CCCS(=O)(=O)Nc1ccc(F)c(C(=O)c2c[nH]c3ncc(Cl)cc23)c1F ?
Result: T
